target: PUM1 PUF domain R5-PRK (Homo sapiens, UniProt Q14671 828-1176, C1007P;Q1011K); test: yeast three-hybrid, YBZ-1, SC-Leu-His + 0.5 mM 3-AT, 4 days; details: tags: N-Gal4 AD-HA kept; label: inside an RPR1-promoter hybrid RNA with tandem MS2 sites; ssRNA
Sequence (Q14671 828-1176 C1007P/Q1011K): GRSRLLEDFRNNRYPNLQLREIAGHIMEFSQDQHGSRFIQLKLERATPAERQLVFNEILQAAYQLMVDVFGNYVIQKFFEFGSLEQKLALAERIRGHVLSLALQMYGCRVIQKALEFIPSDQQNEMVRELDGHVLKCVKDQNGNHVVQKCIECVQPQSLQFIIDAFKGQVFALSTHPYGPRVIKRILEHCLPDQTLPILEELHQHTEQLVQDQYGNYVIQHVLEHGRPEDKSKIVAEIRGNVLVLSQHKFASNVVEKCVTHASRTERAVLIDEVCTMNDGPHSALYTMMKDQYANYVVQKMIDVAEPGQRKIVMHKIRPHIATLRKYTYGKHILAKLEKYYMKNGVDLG
Task for the reader: assign each of the following sequences its reported binding signal.

Worked examples, 2 sequences total:
Monomer sequence | Endpoint name | Data value
GGCUAGAACUAGUGGAUCCCCCGGCGCCCGGCGGCUCGAGCCCGGGUAAGUGUAAAUAGUCUGCAUGCCGCCGGGCGCCAUGCCUGCAGGUCGACUCUAGAAAACAUG | binding signal | 2.27 log2 enrichment (interaction score)
GGCUAGAACUAGUGGAUCCCCCGGCGCCCGGCGGCUCGAGCCCGGGUAAGUGUUAAUAGUCUGCAUGCCGCCGGGCGCCAUGCCUGCAGGUCGACUCUAGAAAACAUG | binding signal | 4.06 log2 enrichment (interaction score)

For the 2 sequences below, give their binding signal values.
1. GGCUAGAACUAGUGGAUCCCCCGGCGCCCGGCGGCUCGAGCCCGGGUAAGUGUCAAUAGUCUGCAUGCCGCCGGGCGCCAUGCCUGCAGGUCGACUCUAGAAAACAUG
2. GGCUAGAACUAGUGGAUCCCCCGGCGCCCGGCGGCUCGAGCCCGGGUAAGUGUGAAUAGUCUGCAUGCCGCCGGGCGCCAUGCCUGCAGGUCGACUCUAGAAAACAUG

1: 2.13 log2 enrichment (interaction score); 2: 3.87 log2 enrichment (interaction score)
